B1: CPOX (parent)
chain: HAPTIHFNYRYFEVEEADGNKQWW

Variants of: B1
Assay: protein stability index of a GFP-peptide fusion (GPS, HEK-293T) (PSI 1-6); higher = more stable;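 further: lentivirally expressed fusions sorted by FACS into six bins by GFP to DsRed ratio, PSI derived from sequencing read proportions per bin multiplied by bin number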
Details: c terminus: a fixed tail appended
Reported Metric: protein stability index
Just the number.

Worked cases, protein stability index given:
H6R | 2.04
N8W | 1.52
E13M | 2.22
N8D | 2.75
G19F | 2.46

input: Which measured protein stability index value corresponds to G19S ?
output: 2.19

input: Can you look up the measured protein stability index of N20R for me?
output: 2.46

input: Fill in: protein stability index of A2I is ___
output: 1.73

input: Sample A2S — what was its protein stability index?
output: 2.78

input: Any idea what its protein stability index is? The variant is K21S
output: 1.99

input: Name the reported protein stability index value associated with the variant A17C
output: 2.08
